Measured values drawn from paper PMC11535027 for this set.

# MEASURED TARGET: T1, wild-type mature human HtrA2 (human)
# T1 construct: made from the S306A construct that the methods name HtrA2^133–458; also called wild-type HtrA2; Omi; source: E. coli BL21 (λDE3), purified (Ni-HisTrap, gel filtration)
# T1 chain: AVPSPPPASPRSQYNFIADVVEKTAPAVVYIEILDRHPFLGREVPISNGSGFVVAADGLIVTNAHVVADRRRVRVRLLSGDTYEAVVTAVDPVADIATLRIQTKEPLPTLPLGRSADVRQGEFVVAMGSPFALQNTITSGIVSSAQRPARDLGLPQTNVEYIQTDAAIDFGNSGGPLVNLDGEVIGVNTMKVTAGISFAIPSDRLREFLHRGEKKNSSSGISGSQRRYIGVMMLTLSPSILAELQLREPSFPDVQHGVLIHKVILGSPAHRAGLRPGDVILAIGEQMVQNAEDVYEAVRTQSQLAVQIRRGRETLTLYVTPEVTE
# TEST DETAILS: fluorescence cleavage assay (cleavage rate of H2Opt against DD-PDZOpt concentration, one-site binding model); apparent; 510 nM wild-type HtrA2 (monomeric concentration), 20 µM H2Opt, DD-PDZOpt varied, 20 mM HEPES pH 7.4, no EDTA, 2 mM CaCl2, 313 K
# CONDITION CONTEXT: both partners purified
MEASUREMENT KIND: pKd
// field semantics: pKd = negative decimal log of concentration (mol/L)

Enquiry: Dear colleague, please send me the reported pKd for DDGQYYFV (source: synthetic peptide, bought: GenScript) [DD-PDZOpt activating peptide] when you can.
Return: 5.82
